The origin of these recorded values is PubChem BioAssay (NCI).

- Test system: MALME-3M melanoma
- Assay Details: NCI tumour cell line growth inhibition, 48 h
Provide the recorded TGI for the entries that follow.
Numbers only, in µM.

Example results:
Substance Smiles	Display Unit	TGI
CCOC(=O)c1c(CN2CCCC2)n(-c2ccccc2)c2cc(Br)c(OC)cc12	µM	30.4
Cc1ccc(N2C(=O)C(Cl)=C(Cl)C2=O)cc1	µM	33.7

Let us examine a further case.
Tell me measured TGI for Cn1sc2ccccc2c1=S please. 22.9

----------
- Test system: UO-31 renal
- Assay Details: NCI tumour cell line growth inhibition, 48 h
Result Type: TGI (µM)
One number for each entry, in µM.

Look up TGI for the entries below, preserving their order.
1. COC1=C(OC)[C@]2(OC)c3c(O)c(OC)c4c(c3O[C@@]23O[C@@H](c2ccccc2)CC=C3C1=O)[C@@H](O)C[C@H](c1ccccc1)O4
2. O=[N+]([O-])c1cc2c(c([N+](=O)[O-])c1)Nc1ccccc1O2
3. O=Nc1c(NO)ccc2nn(-c3ccccc3)nc12
4. COc1cc2c3c(n(CCCN4CCCC(O)C4)c(=O)c2cc1OC)-c1cc2c(cc1C3=O)OCO2 (stereo unspecified)
5. CC[C@H]1C=CCC[C@@]2(C[C@@H]3CC[C@H]4[C@H](C(=O)OCCCCCCCCCCCCCCCC(=O)N(CCCN)C[C@@H](O)CCN)[C@]5(CCC[C@@H](C)O5)NC(=[N+]34)N2)O1
6. COc1ccc2nc3ccccc3c(NCc3ccc(C)cc3)c2c1

1. 2.6
2. 36.5
3. 11.8
4. 2.24
5. 1.69
6. 2.65

Look up TGI for the entries below, preserving their order.
1. Cc1c(-c2nnc(-c3cc(Cl)c(Cl)cc3Cl)o2)nnn1-c1ccnc2c(C(F)(F)F)cccc12
2. Cc1cc(O)c2c(c1)CC(O)C1=C2C(=O)c2c(O)ccc(OC3CC(O)C(OC4CC(OC5CCC(O)C(C)O5)C(O)C(C)O4)C(C)O3)c2C1=O (stereo unspecified)
3. CC(C)(C)C(=O)/C=C/c1cccc(Oc2ccccc2)c1
4. c1ccc2c3c(ccc2c1)-c1c(ccc2c(NCCCCN4CCCCC4)cccc12)C3
5. CCN(CC)CCCNc1ncc(C)c2c1c1ccc3c(O)cccc3c1n2C
6. CC[CH2][Sn]([CH2]CC)([O]C(=O)Cc1ccc(F)cc1)[O][Sn]([CH2]CC)([CH2]CC)[O]C(=O)Cc1ccc(F)cc1
7. COc1cnc2c(c1)C(=O)c1c-2n(CCCNC(C)C)c(=O)c2cc([N+](=O)[O-])ccc12
8. COc1cc(Nc2nc3cc(C(F)(F)F)ccc3nc2C)cc(OC)c1OC

1. 34.7
2. 3.23
3. 28.8
4. 7.66
5. 21.2
6. 1.65
7. 0.135
8. 12.6

Recall the reported TGI of COc1ccc(C2C3=C(COC3=O)Oc3cc4c(cc32)OCO4)cc1 (stereo unspecified) when tested on UO-31 renal. 74

----------
- Tested on: MOLT-4 leukemia
- Assay Details: NCI tumour cell line growth inhibition, 48 h
Provide the recorded TGI for the entries that follow.
Numbers only, in µM.

Substance Smiles	TGI [µM]
COc1cc(N2CCC(N3CCN(C)CC3)CC2)ccc1Nc1ncc(Cl)c(Nc2ccccc2S(=O)(=O)C(C)C)n1	5.71
O=C(NCCCCCCNC(=O)OCc1ccc2c(Cl)cc(Cl)c(O)c2n1)OCc1ccc2c(Cl)cc(Cl)c(O)c2n1	5.55

Let us examine a further case.
Recall the reported TGI of Cc1ccc(SSCCCCCS(=O)O)cc1 when tested on MOLT-4 leukemia. 40.3

----------
Provide the recorded log10 TGI for the entries that follow.
- Tested on: NCI/ADR-RES ovarian
- Assay Details: NCI tumour cell line growth inhibition, 48 h
Where a SMILES comes first, the peptide text is derived from it. [ ]: non-standard residue; d: D form. The star is where a group is joined. Bn2Val = CC(C)[C@@H](C(=O)*)N(Cc1ccccc1)Cc1ccccc1; NH(3,4-diMeO-benzyl) = COc1ccc(CN*)cc1OC; NMeV = CN[C@H](C(=O)O)C(C)C
In our notation, the value equals log10 of TGI in µM.

Compound	log10 TGI
COc1ccc(C2=NN(C(=O)c3cccnc3)C(O)(c3cc(F)c(Cl)cc3Cl)C2)cc1OC (stereo unspecified)	1.70
COc1ccc(CNC(=O)[C@@H]2CCCN2C(=O)[C@@H]2CCCN2C(=O)[C@H](C(C)C)N(C)C(=O)[C@@H](NC(=O)[C@H](C(C)C)N(Cc2ccccc2)Cc2ccccc2)C(C)C)cc1OC (Bn2Val-V[NMeV]PP-{NH(3,4-diMeO-benzyl)})	1.68
Cc1c(-c2nnc(-c3cc(Cl)c(Cl)cc3Cl)o2)nnn1-c1ccnc2c(C(F)(F)F)cccc12	1.76

Look up log10 TGI for the entries below, preserving their order.
1. COC1=C(OC)[C@]2(OC)c3c(O)c(OC)c4c(c3O[C@@]23O[C@@H](c2ccccc2)CC=C3C1=O)[C@@H](O)C[C@H](c1ccccc1)O4
2. C/C=C/C1=CN2C(=O)c3cc(OC4OC(C)C(NC)C(C)(O)C4O)c(C)c(O)c3N=C[C@@H]2C1 (stereo partly specified)
3. Cc1cc(O)c2c(c1)CC(O)C1=C2C(=O)c2c(O)ccc(OC3CC(O)C(OC4CC(OC5CCC(O)C(C)O5)C(O)C(C)O4)C(C)O3)c2C1=O (stereo unspecified)
4. Cn1sc2ccccc2c1=S

1: 0.53; 2: 0.67; 3: 0.98; 4: 0.97

Look up log10 TGI for the entries below, preserving their order.
1. O=c1cc(-c2cccc(OCc3ccccc3)c2)[nH]c2cc3c(cc12)OCO3
2. CN1CCN(CC(=O)N2c3cccc4cccc(c34)N(C(=O)CN3CCN(C)CC3)C2c2cn(-c3ccccc3)nc2-c2cccc([N+](=O)[O-])c2)CC1

1. -0.34
2. 1.16

----------
Provide the recorded TGI for the entries that follow.
- Test system: HT29 colon
- Assay Details: NCI tumour cell line growth inhibition, 48 h
Give bare numbers, in µM.

Molecule	Experimental Target	TGI [µM]
Cc1c(-c2nnc(-c3cc(Cl)c(Cl)cc3Cl)o2)nnn1-c1ccnc2c(C(F)(F)F)cccc12	HT29 colon	42.2
COc1cc(C)c(NC(=O)CN(C)C)cc1Nc1nc(Nc2cccc(F)c2C(N)=O)c2cc[nH]c2n1	HT29 colon	0.725
COC(=O)[C@H](COC(=O)/C=C/c1ccc(OC(C)=O)c(OC(C)=O)c1)NC(=O)/C=C/c1ccc(OC(C)=O)c(OC(C)=O)c1	HT29 colon	54

Let us examine a further case.
Recall the reported TGI of CC(CN)[C@@H]1CC[C@]2(CO)CC[C@]3(C)[C@H](CC[C@@H]4[C@@]5(C)CCC(N)C(C)(C)[C@@H]5CC[C@]43C)[C@@H]12 (stereo partly drawn) when tested on HT29 colon. 3.03

----------
- System: DLD-1 colon
- Assay Details: NCI tumour cell line growth inhibition, 48 h
Result Type: TGI

Example results:
Molecule	TGI
CC1=Nc2ccccc2C12C(c1ccccc1)C(c1ccccc1)C(=O)N1c3ccccc3CC12 (stereo not given)	> 100 µM
Cn1nc2ccccc2cc1=O	> 100 µM
O=C1NC2C(CCO)CC=C[C@H]2c2cc3c(cc21)OCO3 (stereo not given in full)	> 100 µM
c1ccc2c(CNCCCCCCCCCCCCNCc3cccc4ccccc34)cccc2c1	3.31 µM

Look up TGI for the entries below, preserving their order.
1. COc1ccc(C2C3=C(COC3=O)Oc3cc4c(cc32)OCO4)cc1 (stereo not given)
2. CCN(CC)CCCCC1CCN(CC(=O)N2c3cc(Cl)ccc3NC(=O)CC2C)CC1 (stereo not given)
3. COC(=O)[C@@]12C=CC(=O)[C@H]3C[C@@H](C(C(C)C)C1)[C@]32OC (stereo not given in full)
4. CN1N=C2c3ccccc3CC[C@H]2C1c1cccc(O)c1 (stereo not given in full)
5. CCOC(=O)C(C(=O)OCC)=c1sc(=C(C(=O)OCC)C(=O)OCC)s1

1: > 100 µM; 2: > 100 µM; 3: > 100 µM; 4: > 100 µM; 5: > 100 µM

Tell me measured TGI for CC(C)C1COC(c2ccc3ccccc3c2-c2c(O[Si](C)(C)C(C)(C)C)ccc3ccccc23)=N1 (stereo not given) please. 31.4 µM

----------
Provide the recorded TGI for the entries that follow.
- Tested on: SK-MEL-5 melanoma
- Assay Details: NCI tumour cell line growth inhibition, 48 h
One number for each entry, in µM.

Compound	Experimental Target	TGI / µM
O=c1[nH]c2cc([N+](=O)[O-])ccc2nc1/C=C(\O)c1ccc(Cl)cc1	SK-MEL-5 melanoma	51.2
CC(C)C1COC(c2ccc3ccccc3c2-c2c(O[Si](C)(C)C(C)(C)C)ccc3ccccc23)=N1 (centres undefined)	SK-MEL-5 melanoma	31.8
Cc1cc(N(CCOS(C)(=O)=O)CCOS(C)(=O)=O)ccc1C=Nc1ccc(-c2csc(-c3ccc(Br)cc3)n2)cc1	SK-MEL-5 melanoma	34.1

Let us examine a further case.
Tell me measured TGI for Fc1c(F)c(C(F)(F)F)c(F)c(F)c1N/N=C/c1cn(Cc2ccccc2)c2ccccc12 please. 36
